Experiment: pKa of basic centres (Table 1)
Format: physicochemical
Conditions: first base, e.g., an aliphatic primary, secondary, or tertiary amine; read-out: pKa (Base 1)
Value Type: pKa

Compound: CNC[C@H](c1ccc(Cl)c(Cl)c1)[C@H](O)c1cccc(Br)c1
pKa: 9.4
//
Compound: NC[C@@H](c1ccc2ccccc2c1)C(O)c1ccncc1Cl (some centres unmarked)
pKa: 8
//
Compound: CNC[C@H](c1ccc2ccccc2c1)[C@H](N)c1ccccc1
pKa: 9.8
//
Compound: CNCC(Cc1ccccc1O)c1ccc2ccccc2c1 (centres unmarked)
pKa: 10
//
Compound: CNC[C@H](c1ccc2ccccc2c1)[C@@H](O)c1cc(F)cc(F)c1
pKa: 9.6
//
Compound: CNCC(Cc1ccccc1)c1ccc2cccnc2c1 (centres unmarked)
pKa: 10
//
Compound: CNC[C@H](c1ccc(Cl)c(Cl)c1)[C@@H](O)c1cccc(I)c1
pKa: 9.4
//
Compound: CNC[C@H](c1ccc2ccccc2c1)[C@H](OC)c1ccc2c(c1)OCO2 (racemic)
pKa: 9.7
//
Compound: CNC[C@@H](c1ccc(Cl)c(Cl)c1)[C@H](O)c1cccc(NC(C)=O)c1
pKa: 9.4
//
Compound: CNC[C@H](c1ccc2ccccc2c1)[C@H](O)c1ccccc1C [Compound 28]
pKa: 9.7
//
Compound: NC[C@H](c1ccc2ccccc2c1)[C@@H](O)c1ccncc1Cl
pKa: 8
//
Compound: CNC[C@H](c1ccc(Cl)c(Cl)c1)[C@H](O)c1cncc(OC)c1
pKa: 9.3
//
Compound: CNC[C@H](c1ccc2ccccc2c1)[C@H](OCC(N)=O)c1ccccc1
pKa: 9.6
//
Compound: CNC[C@H](c1ccc2ccccc2c1)[C@H](OCC(=O)NC)c1ccccc1
pKa: 9.6
//
Compound: CNC[C@H](c1ccc(Cl)c(Cl)c1)[C@H](O)c1cccc(OC)n1
pKa: 9.2
//
Compound: CNC[C@@H](c1ccc(Cl)c(Cl)c1)[C@@H](O)c1cncc(OC)c1
pKa: 9.3
//
Compound: CNC[C@@H](c1ccc(Cl)c(Cl)c1)[C@@H](O)c1ccsc1
pKa: 9.5
//
Compound: CNC[C@H](c1ccc2ccccc2c1)[C@H](OCC(=O)N1CC[C@@H](O)C1)c1ccccc1
pKa: 9.6
//
Compound: CNC[C@H](c1ccc2ccccc2c1)[C@@H](O)c1ccccc1F
pKa: 9.7
//
Compound: CNC[C@H](c1ccc(Cl)c(Cl)c1)[C@H](O)c1ccccc1
pKa: 9.4
//
Compound: NCC[C@@H](Cc1cccnc1)c1ccc(Cl)c(Cl)c1
pKa: 8.6
//
Compound: CNC[C@H](c1ccc2ccccc2c1)[C@H](O[C@H](C)C(=O)N1CCCC1)c1ccccc1
pKa: 9.6
//
Compound: CNC[C@H](c1ccc2ccccc2c1)[C@H](OCc1cccn(C)c1=O)c1ccccc1
pKa: 9.6
//
Compound: CNC[C@H](c1ccc2ccccc2c1)[C@H](O)c1cc(F)cc(F)c1 (single isomer, unassigned) [Compound 37]
pKa: 9.6
//
Compound: CNC[C@H](Cc1ccccc1F)c1ccc2ccccc2c1
pKa: 10
//
Compound: CNC[C@@H](c1ccc2ccccc2c1)[C@@H](O)c1cncc(OC)c1
pKa: 9.6
//
Compound: CNC[C@H](c1ccc(OC)c(C)c1)[C@H](O)c1cccnc1
pKa: 10
//
Compound: CNC[C@H](c1ccc2ccccc2c1)[C@H](OCC(=O)N1CCC1)c1ccccc1
pKa: 9.6
//
Compound: CNCC(Cc1ccccc1F)c1ccc2ccccc2c1 (centres unmarked) [Compound 17]
pKa: 10
//
Compound: CN1CCO[C@@H](c2ccccc2)[C@@H](c2ccc3ccccc3c2)C1
pKa: 8.2
//
Compound: CNC[C@H](c1ccc2ccccc2c1)[C@H](O)c1ccc(Cl)s1 (single isomer, unassigned)
pKa: 9.7
//
Compound: CNC[C@H](c1ccc2ccccc2c1)[C@H](O)c1ccc(Cl)nc1
pKa: 9.6
//
Compound: CNC[C@H](c1ccc(OC)c(C)c1)[C@H](O)c1ccccc1 (racemic)
pKa: 10
//
Compound: CNCC(c1ccc2ccccc2c1)[C@H](CO)c1ccccc1 (single isomer, unassigned)
pKa: 9.9
//
Compound: CNC[C@H](c1ccc(Cl)c(Cl)c1)[C@@H](O)c1ccccc1SC
pKa: 9.4

Source listed as patent US9944618B2.
